system: Leishmania donovani; assay: Antileishmanial activity against Leishmania donovani (MHOM/ET/67/L82) amastigotes after 72 hrs; assay type: functional, organism-based; conditions: MHOM/ET/67/L82, 72 h
pIC50: −log10 of the molar value.
We begin with a simple list: items and their reported pIC50.

[
  {
    "COMPOUND": "C=C(C(=O)C[C@@H](C)C1=C(O)C(=O)[C@@H]2C3=C(CC[C@]12C)[C@@]1(C)CC[C@H](O[C@@H]2O[C@H](C(=O)O)[C@@H](O)[C@H](O[C@@H]4OC[C@@H](O)[C@H](O)[C@H]4O)[C@H]2O)C[C@@H]1CC3)C(C)C [PANDAROSIDE E]",
    "pIC50": 4.80
  },
  {
    "COMPOUND": "CC[C@@H](C(=O)C[C@@H](C)C1=C(O)C(=O)[C@@H]2[C@@H]3CC[C@H]4C[C@@H](O[C@@H]5O[C@H](C(=O)OC)[C@@H](O)[C@H](O)[C@H]5O[C@@H]5O[C@H](CO)[C@@H](O)[C@H](O)[C@H]5O)CC[C@]4(C)[C@H]3CC[C@]12C)C(C)C [METHYL ESTER PANDAROSIDE A]",
    "pIC50": 4.18
  },
  {
    "COMPOUND": "CC[C@@H](C(=O)C[C@@H](C)C1=C(O)C(=O)[C@@H]2[C@@H]3CC[C@H]4C[C@@H](O[C@@H]5O[C@H](C(=O)O)[C@@H](O[C@H]6O[C@H](C)[C@@H](O)[C@H](O)[C@@H]6O)[C@H](O)[C@H]5O)CC[C@]4(C)[C@H]3CC[C@]12C)C(C)C [PANDAROSIDE I]",
    "pIC50": 4.44
  },
  {
    "COMPOUND": "CC[C@@H](C(=O)C[C@@H](C)C1=C(O)C(=O)[C@@H]2[C@@H]3CC[C@H]4C[C@@H](O[C@@H]5O[C@H](C(=O)OC)[C@@H](O)[C@H](O[C@@H]6OC[C@@H](O)[C@H](O)[C@H]6O)[C@H]5O)CC[C@]4(C)[C@H]3CC[C@]12C)C(C)C [METHYL ESTER PANDAROSIDE H]",
    "pIC50": 4.78
  }
]
